Where do the numbers come from? From patent US20040044037A1.

- Target Or Test System: human 5-HT7B (h5-HT7b) receptors (Homo sapiens)
- Construct: expressed in transfected cells
- Procedure Text: Competition radioligand binding, h5-HT7b
- Experimental Context: [3H]5-CT; membranes of HEK 293 cells; read-out: Ki 5-HT7
pKi: −log10 of the molar value.
Label YES when pKi >= 8; otherwise NO.

| Smiles | Group Label |
| --- | --- |
| N=C(NCc1cccc2ccccc12)NC(=O)N1CCN(Cc2ccccc2)CC1 | YES |
| N=C(NCc1cccc2ccccc12)NC(=O)N[C@@H](CO)c1ccccc1 | NO |
| N=C(NCc1cccc2ccccc12)NC(=O)N[C@H](CO)c1ccccc1 | YES |

====

Measured Ki, listed per entry for reference.
- Target Or Test System: human D2S dopamine (hD2S-DA) receptors (Homo sapiens)
- Construct: purchased Receptor Biology, Inc. (Beltsville, Md.); host or cells: A9 L cells
- Sequence (P14416 1-414 isoform P14416-2): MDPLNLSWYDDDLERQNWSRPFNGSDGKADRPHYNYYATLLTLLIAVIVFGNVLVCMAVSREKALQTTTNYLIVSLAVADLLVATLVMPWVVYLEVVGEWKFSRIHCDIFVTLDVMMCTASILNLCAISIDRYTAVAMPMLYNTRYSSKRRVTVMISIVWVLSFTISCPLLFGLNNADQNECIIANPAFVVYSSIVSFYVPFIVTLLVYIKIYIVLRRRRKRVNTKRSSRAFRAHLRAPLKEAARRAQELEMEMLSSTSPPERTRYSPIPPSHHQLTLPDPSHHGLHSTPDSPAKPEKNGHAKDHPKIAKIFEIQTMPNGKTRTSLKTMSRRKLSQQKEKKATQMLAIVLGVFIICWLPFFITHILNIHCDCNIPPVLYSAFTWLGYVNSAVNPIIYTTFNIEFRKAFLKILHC
- Procedure Text: Competition radioligand binding, hD2S dopamine
- Experimental Context: [3H]Spiperone; membranes of A9 L cells; read-out: Ki D2

| Smiles | Target Or Test System | Ki |
| --- | --- | --- |
| N=C(NCc1cccc2ccccc12)NC(=O)N1CCC2(CC1)C(=O)NCN2c1ccccc1 | human D2S dopamine (hD2S-DA) receptors (Homo sapiens) | 0.34 µM |
| N=C(NCc1cccc2ccccc12)NC(=O)NCCSCc1c(F)cccc1Cl | human D2S dopamine (hD2S-DA) receptors (Homo sapiens) | 0.86 µM |
| N=C(NCc1cccc2ccccc12)NC(=O)NC[C@@H]1CCCC[C@@H]1O | human D2S dopamine (hD2S-DA) receptors (Homo sapiens) | 1.07 µM |
| N=C(NCc1cccc2ccccc12)NC(=O)NCC1CCN(Cc2cc(F)cc(F)c2)CC1 | human D2S dopamine (hD2S-DA) receptors (Homo sapiens) | 1.34 µM |
| CC(=O)NCCNC(=O)NC(=N)NCc1cccc2ccccc12 | human D2S dopamine (hD2S-DA) receptors (Homo sapiens) | > 2.5 µM |
| N=C(NCc1cccc2ccccc12)NC(=O)NCC1CCN(Cc2ccc3c(c2)OCO3)CC1 | human D2S dopamine (hD2S-DA) receptors (Homo sapiens) | 1.58 µM |
| CN(C)C(=O)NC(=N)NCc1cccc2ccccc12 | human D2S dopamine (hD2S-DA) receptors (Homo sapiens) | > 2.5 µM |
| COc1ccccc1CN1CCN(C(=O)NC(=N)NCc2cccc3ccccc23)CC1 | human D2S dopamine (hD2S-DA) receptors (Homo sapiens) | 2.01 µM |
| Cc1ccccc1CNC(=O)NC(=N)NCCc1ccccn1 | human D2S dopamine (hD2S-DA) receptors (Homo sapiens) | > 2.5 µM |
| CCOC(=O)N1CCN(C(=O)NC(=N)NCc2cccc3ccccc23)CC1 | human D2S dopamine (hD2S-DA) receptors (Homo sapiens) | > 2.5 µM |
| N=C(NCc1cccc2ccccc12)NC(=O)NCC1CCN(Cc2noc(-c3ccccc3)n2)CC1 | human D2S dopamine (hD2S-DA) receptors (Homo sapiens) | > 2.5 µM |
| N=C(NCc1cccc2ccccc12)NC(=O)N[C@@H](Cc1ccc(O)cc1)C(N)=O | human D2S dopamine (hD2S-DA) receptors (Homo sapiens) | 0.63 µM |
| N=C(NCc1cccc2ccccc12)NC(=O)N[C@@H](CO)c1ccccc1 | human D2S dopamine (hD2S-DA) receptors (Homo sapiens) | 0.2 µM |
| N=C(NCc1cccc2ccccc12)NC(=O)NCC1CCNCC1 | human D2S dopamine (hD2S-DA) receptors (Homo sapiens) | > 2.5 µM |
| CNC(=O)NC(=N)NCc1cccc2ccccc12 | human D2S dopamine (hD2S-DA) receptors (Homo sapiens) | > 2.5 µM |
| N=C(NCc1cccc2ccccc12)NC(=O)NCC1CCN(Cc2cccc3ccccc23)CC1 | human D2S dopamine (hD2S-DA) receptors (Homo sapiens) | 0.72 µM |
| N=C(NCc1cccc2ccccc12)NC(=O)N1CCC(C(N)=O)CC1 | human D2S dopamine (hD2S-DA) receptors (Homo sapiens) | > 2.5 µM |
| N=C(NCc1cccc2ccccc12)NC(=O)NCC1CCN(Cc2ccc(F)cc2)CC1 | human D2S dopamine (hD2S-DA) receptors (Homo sapiens) | 1.27 µM |

====

Measured pKi, listed per entry for reference.
- Target Or Test System: human 5HT2a receptors (Homo sapiens)
- Construct: expressed in transfected cells; host or cells: CHO K1 cells
- Sequence (P28223 whole entry): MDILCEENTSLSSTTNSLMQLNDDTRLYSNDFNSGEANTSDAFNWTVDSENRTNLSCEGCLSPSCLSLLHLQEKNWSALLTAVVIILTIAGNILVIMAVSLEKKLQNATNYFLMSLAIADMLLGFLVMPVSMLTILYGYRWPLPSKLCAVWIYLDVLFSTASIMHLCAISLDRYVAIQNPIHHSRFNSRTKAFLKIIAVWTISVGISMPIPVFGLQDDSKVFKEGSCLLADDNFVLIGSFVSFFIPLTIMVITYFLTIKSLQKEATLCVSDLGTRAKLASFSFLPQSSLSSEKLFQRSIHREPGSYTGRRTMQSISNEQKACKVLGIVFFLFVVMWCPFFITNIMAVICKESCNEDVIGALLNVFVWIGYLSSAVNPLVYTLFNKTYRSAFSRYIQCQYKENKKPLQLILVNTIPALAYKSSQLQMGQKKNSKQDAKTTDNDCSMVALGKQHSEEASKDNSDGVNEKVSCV
- Procedure Text: Competition radioligand binding, 5-HT2A
- Experimental Context: [3H]Ketanserin; membranes of CHO K1 cells; read-out: Ki 5-HT2A
pKi: −log10 of the molar value.

| Smiles | pKi |
| --- | --- |
| N#Cc1ccc(CN2CCC(CNC(=O)NC(=N)NCc3cccc4ccccc34)CC2)cc1 | 8.59 |
| N=C(NCc1cccc2ccccc12)NC(=O)N1CCC2(CC1)C(=O)NCN2c1ccccc1 | 7.48 |
| N=C(NCc1cccc2ccccc12)NC(=O)NCC1CCN(Cc2ccc3c(c2)OCO3)CC1 | 8.38 |
| N=C(NCc1cccc2ccccc12)NC(=O)N[C@H](CO)c1ccccc1 | 9.40 |
| N=C(NCc1cccc2ccccc12)NC(=O)NCc1cccnc1 | 9.37 |
| CNC(=O)NC(=N)NCc1c(OC)cccc1OC | 6.55 |
| N=C(NCc1cccc2ccccc12)NC(=O)NC1CCN(Cc2ccccc2)CC1 | 7.89 |
| N=C(NCc1cccc2ccccc12)NC(=O)NC[C@@H]1CCCC[C@H]1O | 9.22 |
| CNC(=O)NC(=N)NCc1ccccc1Oc1ccccc1Cl | 6.54 |
| COc1ccccc1CN1CCN(C(=O)NC(=N)NCc2cccc3ccccc23)CC1 | 7.34 |
| CNC(=O)NC(=N)NCc1cccc2ccccc12 | 8.02 |

====

- Target Or Test System: human 5-HT7B (h5-HT7b) receptors (Homo sapiens)
- Construct: expressed in transfected cells
- Procedure Text: Competition radioligand binding, h5-HT7b
Measured log10 Ki, listed per entry for reference.
Value Kind: log10 Ki (log10 of the value in µM)

| Molecule | log10 Ki |
| --- | --- |
| COc1cccc(OC)c1CNC(=N)NC(=O)N1CCC(Nc2ccccc2)CC1 [Example 81] | -1.18 |
| N=C(NCc1ccccc1-c1ccccc1)NC(=O)N1CCC(Nc2ccccc2)CC1 [Example 79] | -1.00 |
| N=C(NCc1c(Cl)cccc1Oc1ccccc1)NC(=O)N1CCC(Nc2ccccc2)CC1 [Example 80] | -1.39 |
| CCOc1ccccc1CNC(=N)NC(=O)N1CCC(Nc2ccccc2)CC1 [Example 78] | -1.47 |
| N=C(NCc1cccc2ccccc12)NC(=O)N1CCC(Nc2ccccc2)CC1 [Example 25] | -2.13 |

====

- Target Or Test System: human 5-HT6 (h5-HT6) receptors (Homo sapiens, UniProt P50406)
- Construct: purchased Receptor Biology, Inc. (Beltsville, Md.); host or cells: HEK-293 cells
- Sequence (P50406 whole entry): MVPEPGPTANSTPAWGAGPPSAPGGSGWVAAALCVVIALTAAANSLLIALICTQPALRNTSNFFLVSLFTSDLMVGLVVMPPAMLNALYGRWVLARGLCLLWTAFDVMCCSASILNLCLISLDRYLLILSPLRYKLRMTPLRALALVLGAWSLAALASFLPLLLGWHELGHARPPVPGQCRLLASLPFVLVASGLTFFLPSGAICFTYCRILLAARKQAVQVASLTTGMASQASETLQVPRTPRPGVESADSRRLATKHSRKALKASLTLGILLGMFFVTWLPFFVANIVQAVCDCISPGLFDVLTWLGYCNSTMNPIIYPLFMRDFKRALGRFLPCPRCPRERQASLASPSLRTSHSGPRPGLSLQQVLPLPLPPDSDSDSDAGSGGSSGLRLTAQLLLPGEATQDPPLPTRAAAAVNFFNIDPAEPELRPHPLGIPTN
- Procedure Text: Competition radioligand binding, h5-HT6
- Experimental Context: [3H]LSD; membranes of HEK-293 cells; read-out: Ki 5-HT6
pKi: −log10 of the molar value.
Measured pKi, listed per entry for reference.

| Compound | Qual | pKi |
| --- | --- | --- |
| N=C(NCc1cccc2ccccc12)NC(=O)NCCCn1ccnc1 | = | 6.04 |
| N=C(NCc1cccc2ccccc12)NC(=O)NC1CCN(Cc2ccccc2)CC1 | = | 5.06 |
| N=C(NCc1cccc2ccccc12)NC(=O)N1CCC(C(N)=O)CC1 | < | 5.00 |
| N=C(NCc1cccc2ccccc12)NC(=O)N[C@H](CO)c1ccccc1 | = | 6.77 |
| N=C(NCc1cccc2ccccc12)NC(=O)NCC1CCN(Cc2cccc(Cl)c2)CC1 | = | 6.12 |
| N=C(NCc1cccc2ccccc12)NC(=O)NC[C@@H]1CCCC[C@@H]1O | = | 6.47 |
| COc1ccccc1CN1CCN(C(=O)NC(=N)NCc2cccc3ccccc23)CC1 | = | 5.71 |
| CC(O)CNC(=O)NC(=N)NCc1cccc2ccccc12 (stereo not drawn) | = | 5.82 |
| N=C(NCc1cccc2ccccc12)NC(=O)Nc1cccc(C(N)=O)c1 | = | 7.10 |

====

- Target Or Test System: human 5-HT7B (h5-HT7b) receptors (Homo sapiens, UniProt P34969)
- Construct: expressed in transfected cells
- Sequence (P34969 1-432 limits assumed): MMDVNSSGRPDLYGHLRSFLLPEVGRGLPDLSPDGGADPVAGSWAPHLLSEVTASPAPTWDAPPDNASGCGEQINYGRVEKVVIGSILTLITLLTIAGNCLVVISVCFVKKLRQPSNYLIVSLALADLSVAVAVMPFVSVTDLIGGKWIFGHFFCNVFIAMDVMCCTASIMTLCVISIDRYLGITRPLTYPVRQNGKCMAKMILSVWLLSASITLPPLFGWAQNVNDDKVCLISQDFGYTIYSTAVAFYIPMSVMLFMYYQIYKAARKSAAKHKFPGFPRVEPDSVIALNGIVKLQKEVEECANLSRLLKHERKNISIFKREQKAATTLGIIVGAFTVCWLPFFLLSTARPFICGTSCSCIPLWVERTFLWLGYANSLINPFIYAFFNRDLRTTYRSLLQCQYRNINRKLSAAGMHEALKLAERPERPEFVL
- Procedure Text: Competition radioligand binding, h5-HT7b
- Experimental Context: [3H]5-CT; membranes of HEK 293 cells; read-out: Ki 5-HT7

| Compound | Unit Descriptor | Ki |
| --- | --- | --- |
| N=C(NCc1cccc2ccccc12)NC(=O)NCC1CCN(Cc2cccc(C(F)(F)F)c2)CC1 | nM | 59 |
| N=C(NCc1cccc2ccccc12)NC(=O)NC[C@@H]1CCCC[C@H]1O | nM | 9.8 |
| N=C(NCc1cccc2ccccc12)NC(=O)NCCCn1ccnc1 | nM | 25 |
| N=C(NCc1cccc2ccccc12)NC(=O)NC1CCN(Cc2ccccc2)CC1 | nM | 68 |
| CNC(=O)NC(=N)NCc1cccc2ccccc12 | nM | 13 |
| COc1ccccc1N1CCN(C(=O)NC(=N)NCc2cccc3ccccc23)CC1 | nM | 6 |
| COc1ccc(CNC(=O)NC(=N)NCc2cccc3ccccc23)cc1 | nM | 43 |
| N=C(NCc1cccc2ccccc12)NC(=O)NCc1cccc(CN)c1 | nM | 11 |
| N=C(NCc1cccc2ccccc12)NC(=O)N1CCC(C(N)=O)CC1 | nM | 12 |
| N=C(NCc1cccc2ccccc12)NC(=O)N1CCNCC1 | nM | 930 |
| N=C(NCc1cccc2ccccc12)NC(=O)NCc1c(N)cccc1F | nM | 33 |
| N=C(NCc1cccc2ccccc12)NC(=O)N1CCN(C/C=C/c2ccccc2)CC1 | nM | 3.2 |
| CN1CCCC1CCNC(=O)NC(=N)NCc1cccc2ccccc12 (stereo not shown) | nM | 32 |
| N=C(NCc1cccc2ccccc12)NC(=O)NCCc1c[nH]c2ccc(Cl)cc12 | nM | 120 |
| N=C(NCc1cccc2ccccc12)NC(=O)Nc1cccc(C(N)=O)c1 | nM | 18 |
| N=C(NCc1cccc2ccccc12)NC(=O)NCC1CCN(Cc2cc(F)cc(F)c2)CC1 | nM | 28 |
| N=C(NCc1cccc2ccccc12)NC(=O)NC1CCCCC1O (stereo not shown) | nM | 11 |
| Cc1ccccc1CN1CCC(CNC(=O)NC(=N)NCc2cccc3ccccc23)CC1 | nM | 29 |
| O=C(Nc1nc2ccccc2[nH]1)Nc1cc(F)ccc1F | nM | 2700 |
